- system.name: Tyrosyl-tRNA synthetase, putative (Trypanosoma cruzi (strain CL Brener)) (UniProt Q4DSP6)
- Sequence (Q4DSP6 as listed by the source): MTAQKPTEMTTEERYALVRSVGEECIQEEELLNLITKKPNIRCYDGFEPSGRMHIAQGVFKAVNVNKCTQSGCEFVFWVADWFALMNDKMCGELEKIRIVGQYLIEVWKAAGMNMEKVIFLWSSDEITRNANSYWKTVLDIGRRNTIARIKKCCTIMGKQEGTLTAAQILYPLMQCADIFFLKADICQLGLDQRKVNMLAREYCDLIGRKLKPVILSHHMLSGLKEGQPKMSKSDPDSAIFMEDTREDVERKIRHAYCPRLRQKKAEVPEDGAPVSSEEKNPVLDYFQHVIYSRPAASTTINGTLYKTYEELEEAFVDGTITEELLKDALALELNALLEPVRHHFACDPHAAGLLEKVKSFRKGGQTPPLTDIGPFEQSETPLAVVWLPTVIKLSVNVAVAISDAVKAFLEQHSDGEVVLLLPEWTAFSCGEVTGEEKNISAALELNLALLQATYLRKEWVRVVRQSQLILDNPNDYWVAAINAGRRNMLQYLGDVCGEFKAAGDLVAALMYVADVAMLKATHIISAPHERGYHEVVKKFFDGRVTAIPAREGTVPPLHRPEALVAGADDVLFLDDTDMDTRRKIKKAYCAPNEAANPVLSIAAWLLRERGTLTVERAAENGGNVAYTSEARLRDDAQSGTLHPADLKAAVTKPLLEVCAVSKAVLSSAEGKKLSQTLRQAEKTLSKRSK
- assay.method.text: Trypanosoma cruzi tyrosyl tRNA synthetase (TcYRS) SOP
- Type: functional
- Parameters: scale not given: direction of the effect not stated beside the values
- test.parameters: 30 µM
Quick rule for you: Percent Effect at 10% or higher means fulfilled, lower means not fulfilled.

[
  {
    "molecule": "O=C(CCc1ccccc1)Nc1ncccc1OC(F)F",
    "category": "not fulfilled"
  },
  {
    "molecule": "CCNC(=O)CCc1c(C)nc2cc(O)nn2c1C",
    "category": "fulfilled"
  },
  {
    "molecule": "CCc1nc(C2CCCN2CC(=O)Nc2c(C)n[nH]c2C)no1 (centres undefined)",
    "category": "not fulfilled"
  },
  {
    "molecule": "c1ccc(-c2cnc(CNC3CCCN(c4cccnn4)C3)o2)cc1 (centres undefined)",
    "category": "fulfilled"
  },
  {
    "molecule": "Cc1cccc(CNC(=O)CNc2cc(CO)ccc2Cl)c1",
    "category": "not fulfilled"
  },
  {
    "molecule": "CCC(=O)N1CCC(Cc2ccccc2-c2ccccc2)(C(N)=O)C1 (centres undefined)",
    "category": "fulfilled"
  },
  {
    "molecule": "O=C([C@H]1C[C@H]2OCC[C@H]2N(C(=O)c2ccncc2)C1)N1CCCCO1",
    "category": "not fulfilled"
  },
  {
    "molecule": "CCn1nc2c(cc1=O)CN(Cc1nc(CCOC)no1)CC2",
    "category": "not fulfilled"
  },
  {
    "molecule": "COc1ccc(-c2noc(CNC(C)Cn3cccn3)n2)c(OC)c1 (centres undefined)",
    "category": "fulfilled"
  },
  {
    "molecule": "CN(Cc1ccc(F)cc1)C(=O)NCC1(N2CCOCC2)CCSC1 (centres undefined)",
    "category": "fulfilled"
  },
  {
    "molecule": "Cc1[nH]ccc1C(=O)N1CCC(c2nnc(Cn3cccn3)n2C)CC1",
    "category": "fulfilled"
  },
  {
    "molecule": "CC(NC(=O)N1CCN(CCc2ccccc2)CC1)c1nncn1C (centres undefined)",
    "category": "not fulfilled"
  },
  {
    "molecule": "COCCNC(=O)c1ccc(C)c(-n2cccc2)c1",
    "category": "not fulfilled"
  },
  {
    "molecule": "COCCN(CCc1ccccc1)Cc1nc2c(cnn2C)c(=O)[nH]1",
    "category": "fulfilled"
  },
  {
    "molecule": "O=C1CC[C@H]2[C@H](CCN2C(=O)C2CCCO2)N1Cc1ccncc1 (some centres undefined)",
    "category": "not fulfilled"
  },
  {
    "molecule": "Cc1cccc(C(=O)N2CCCN(Cc3cnn(C)c3)CC2)n1",
    "category": "not fulfilled"
  },
  {
    "molecule": "CCC1CCCCCN1C(=O)c1nnc2ccccc2c1N (centres undefined)",
    "category": "not fulfilled"
  },
  {
    "molecule": "Cc1ccc2oc(C(=O)N3CCC(C(=O)N4CCCC4)CC3)cc2n1",
    "category": "fulfilled"
  },
  {
    "molecule": "Cc1nc(C)n(CC2CCCN(CC(=O)Nc3nncs3)C2)n1 (centres undefined)",
    "category": "not fulfilled"
  },
  {
    "molecule": "Cc1cccc(C2(CNC(=O)CCN3C(=O)CCC3=O)CCCC2)c1",
    "category": "fulfilled"
  },
  {
    "molecule": "CC(C)c1ncc(CN2CCCC(CO)C2)cn1 (centres undefined)",
    "category": "not fulfilled"
  },
  {
    "molecule": "CN(C)CCO[C@@H]1CC[C@H]2[C@H]1OCCN2C(=O)COc1ccccc1",
    "category": "not fulfilled"
  },
  {
    "molecule": "O=C(c1cccs1)N1CC[C@H](O)[C@@H]1Cc1ccccc1",
    "category": "not fulfilled"
  },
  {
    "molecule": "Cc1nn(C)c(C)c1CNCc1ccc(N2CCOCC2)nc1",
    "category": "fulfilled"
  }
]
